meta.source: PubChem BioAssay (NCI)

Would you kindly list growth inhibition for each of these compounds?
- EXPERIMENT: NCI Yeast Anticancer Drug Screen. Data for the bub3 strain (AID 167)
- APPLIED CONDITIONS: S. cerevisiae bub3 mutant strain, at 1.2 µM, hits give high values
Compounds without any hit were thinned out: in the full panel of roughly 79,000, 15% have a hit. Calls of active or inactive are those of the source. Cut-off read from the data, not from the text of the source: active = growth inhibition above about 70%; inactive = the rest.

# annotated cases, reported growth inhibition shown
Challenge: May I ask what growth inhibition has been recorded for CCN(CC)C(=S)N/N=C(/C)c1cccc(/C(C)=N\NC(=S)N(CC)CC)n1 ?
Response given: 7% (inactive)

Challenge: Return reported growth inhibition; argument: O=C1C(Nc2ccccc2)=C(Oc2ccccc2)C(=O)c2ccccc21
Response given: 3% (inactive)

Challenge: Look up growth inhibition for this compound: COc1ccccc1N=NC(C(=O)c1ccccc1)C(=O)c1ccccc1
Response given: 4% (inactive)

Challenge: Requested field: growth inhibition. Item: COc1cc(C2C3=C(COC3=O)Oc3cc4c(cc32)OCO4)ccc1O (stereo unspecified)
Response given: -2% (inactive)

Here are 2 compounds. What values of growth inhibition were reported for them?
1. Cc1ccc(S(=O)(=O)NCCSS(=O)(=O)c2ccc(C)cc2)cc1
2. O=C1c2cc([N+](=O)[O-])ccc2-c2cccc(F)c21

Response given:
1. -14% (inactive)
2. -4% (inactive)

----------
- EXPERIMENT: NCI Yeast Anticancer Drug Screen. Data for the mec2-1 strain (AID 157)
- APPLIED CONDITIONS: S. cerevisiae mec2-1 strain, at 33.0 µM
This is part of a sample that, as a whole, favours compounds with a hit. Of some 79,000 tested, about 15% had one in any assay. Activity calls are given as the source filed them. Cut-off read from the data, not from the text of the source: active = growth inhibition above about 70%; inactive = the rest.
The reply should name one outcome from t for active, f for inactive

# count of solved cases: 3
Challenge: Could you kindly confirm the outcome this assay logged for Cc1ccc(C2C(Cl)C(=O)N2n2cnc3ccccc3c2=O)cc1 (stereo unspecified) ?
Response given: f

Challenge: Record request — test call for Cc1ccc(CCC2=CCCc3c2ccc2ccccc32)cc1
Response given: f

Challenge: Call for entry CCCCCCCCCCCCCC[N+](C)(CC(=O)[O-])Cc1ccccc1 (stereo unspecified) :
Response given: t

Next:
Challenge: Fill in: this test's call for NC1=NS(=O)(=O)N=C(N)C1=Cc1ccc([N+](=O)[O-])o1 is ___
Response given: f

Challenge: Please state the recorded outcome for this molecule: COC(=O)C1=C(C)NC(C)=C(C(=O)OCCCN2CCC(c3ccccc3)(c3ccccc3)CC2)C1c1cccc([N+](=O)[O-])c1 (stereo unspecified)
Response given: t

Challenge: I would be grateful if you could indicate the recorded call for CCC(C)COC(=O)c1ccc(N=Cc2ccc(C=Nc3ccc(C(=O)OCC(C)CC)cc3)cc2)cc1 (stereo unspecified) .
Response given: f

Challenge: Assay outcome for CC1(C)C(=O)OC(n2cc(F)c(=O)[nH]c2=O)C1=O (stereo unspecified) : what was it?
Response given: f

Challenge: Test call, this molecule: CCNc1nnc(CSc2nc(-c3ccccc3)c(-c3ccccc3)[nH]2)s1
Response given: t

Challenge: What did the test return for COC(=O)c1ccc(CCC2=CC(=O)C(Br)=CC2=O)cc1 ?
Response given: f

Challenge: Hey, what did the test say about CCCCCCCCCCCCCCCCCCOCC(O)COP(=O)(O)OCC1OC(n2cc(F)c(=O)[nH]c2=O)CC1O (stereo unspecified) ?
Response given: t

Challenge: Hello, I am checking results. What call was entered for CC(=O)OC1CCC2(C)C(=CCC3C4CCC5(OC6CC(C)CN(C(C)=O)C6C5C)C(C)=C4C(=O)C32)C1 (stereo unspecified) ?
Response given: t

Challenge: Please indicate how the test categorized O=[N+]([O-])c1ccc([N+]2=NC(c3ccccc3)=NN(c3ccccc3)C2)cc1 .
Response given: f

Challenge: Per the assay record, what outcome was assigned to O=C1c2ccccc2C(=O)c2cc(CBr)ccc21 ?
Response given: f

Challenge: For COCCOC(=O)CCn1cc(F)c(=O)[nH]c1=O , what call appears in the results of this test?
Response given: f

Challenge: What classification did C(=C\c1ccccc1)/COc1ccccc1C(N1CCOCC1)n1nc2ccccc2n1 (stereo unspecified) end up with in this test?
Response given: t
